Origin of the recorded values: patent US20090131306A1

# protocol notes: Stability testing in PBS
# measurement setup: result in words, relative to unmodified ADH-1
observed property: stability in PBS

CC(=O)NC1CSCC(O)CSCC(C(N)=O)NC(=O)[C@H](C(C)C)NC(=O)[C@H](C)NC(=O)[C@H](Cc2c[nH]cn2)NC1=O (some centres unmarked) ... stable
CC(=O)N[C@H]1CSC[C@H](O)CSC[C@@H](C(N)=O)NC(=O)[C@H](C(C)C)NC(=O)[C@H](C)NC(=O)[C@H](Cc2c[nH]cn2)NC1=O ... stable
CC(=O)NC1CSCc2ccccc2CSCC(C(N)=O)NC(=O)[C@H](C(C)C)NC(=O)[C@H](C)NC(=O)[C@H](Cc2c[nH]cn2)NC1=O (some centres unmarked) ... stable

----------
# protocol notes: Stability testing in human whole blood
# measurement setup: human whole blood; result in words, relative to unmodified ADH-1
observed property: stability in whole blood

CC(=O)NC1CSCC(O)CSCC(C(N)=O)NC(=O)[C@H](C(C)C)NC(=O)[C@H](C)NC(=O)[C@H](Cc2c[nH]cn2)NC1=O (stereo partly drawn) [ADH100713-T] ... stable
CC(=O)NC1CSCc2ccccc2CSCC(C(N)=O)NC(=O)[C@H](C(C)C)NC(=O)[C@H](C)NC(=O)[C@H](Cc2c[nH]cn2)NC1=O (stereo partly drawn) [ADH100710-T] ... stable
